These data points were gathered from paper PMC9199891.

- experiment_notes: Single-dose pharmacokinetics of omeprazole
- Assay type: in vivo, healthy Chinese volunteers
- study_conditions: human, plasma, oral, 20 mg, Tmax, after administration in all subjects (nine diplotype groups)
outcome_measure: Tmax

Query block: May I ask what Tmax has been recorded for COc1ccc2[nH]c([S+]([O-])Cc3ncc(C)c(OC)c3C)nc2c1 (stereo not shown) ?
Result block: 1.33 to 4.6 h
